Catalogue of DC50 readings, one per entry.
Target or test system: BTK (Homo sapiens)
Construct: endogenous in cells; host or cells: Ramos (ATCC CRL-1596)
Sequence (Q06187 whole entry): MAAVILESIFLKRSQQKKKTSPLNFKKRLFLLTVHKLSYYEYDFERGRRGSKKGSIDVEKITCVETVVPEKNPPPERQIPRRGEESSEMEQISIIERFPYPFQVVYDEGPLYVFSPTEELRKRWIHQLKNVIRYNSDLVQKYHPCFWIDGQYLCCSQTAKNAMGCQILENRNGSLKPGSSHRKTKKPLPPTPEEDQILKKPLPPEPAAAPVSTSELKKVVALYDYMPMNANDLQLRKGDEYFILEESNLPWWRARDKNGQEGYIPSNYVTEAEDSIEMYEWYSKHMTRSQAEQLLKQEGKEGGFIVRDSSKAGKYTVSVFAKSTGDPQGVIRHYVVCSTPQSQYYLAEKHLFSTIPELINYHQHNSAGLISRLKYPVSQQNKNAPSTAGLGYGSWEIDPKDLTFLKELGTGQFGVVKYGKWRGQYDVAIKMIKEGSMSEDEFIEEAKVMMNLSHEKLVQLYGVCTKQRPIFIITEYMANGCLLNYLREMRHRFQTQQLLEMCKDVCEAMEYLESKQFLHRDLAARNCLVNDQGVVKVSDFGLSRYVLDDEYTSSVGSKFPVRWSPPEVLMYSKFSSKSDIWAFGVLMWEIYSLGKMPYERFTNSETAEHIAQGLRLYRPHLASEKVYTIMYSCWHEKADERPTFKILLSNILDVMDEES
Protocol notes: Cellular BTK HTRF Assay (BTK levels in Ramos cells)
Type: cell-based
Condition label: Ramos cells, 50,000 cells, incubated four hours at 37° C.; BTK levels by Cisbio Total-BTK HTRF relative to DMSO-treated cells

Molecule	DC50
Cn1cc(-c2ccnc(-n3ncc4cc(C(C)(C)C)cc(F)c4c3=O)c2CO)cc(Nc2cc3n(n2)CCN(C(=O)CCOCCCc2cccc4c2C(=O)N(C2CCC(=O)NC2=O)C4=O)C3)c1=O (stereo not drawn) [Compound 21]	0.01 to 1 µM
C[C@H]1CN(C(=O)NCCOCCOCCOCCCc2cccc3c2CN(C2CCC(=O)NC2=O)C3=O)CCN1c1ccc(Nc2cc(-c3ccnc(N4CCn5c(cc6c5CC(C)(C)C6)C4=O)c3CO)cn(C)c2=O)nc1 (stereo partly drawn) [Compound 47]	0.001 to 0.01 µM
C[C@H]1CN(C(=O)CCOCCN2CCN(CCOCCOCCNc3cccc4c3C(=O)N(C3CCC(=O)NC3=O)C4=O)CC2)CCN1c1ccc(Nc2cc(-c3ccnc(N4CCn5c(cc6c5CC(C)(C)C6)C4=O)c3CO)cn(C)c2=O)nc1 (stereo partly drawn) [Compound 42]	0.01 to 1 µM
